Target: polycystin-2 (PC2, TRPP2), PC2_F604P (Homo sapiens, UniProt Q13563, F604P)
Sequence (Q13563 185-719 F604P): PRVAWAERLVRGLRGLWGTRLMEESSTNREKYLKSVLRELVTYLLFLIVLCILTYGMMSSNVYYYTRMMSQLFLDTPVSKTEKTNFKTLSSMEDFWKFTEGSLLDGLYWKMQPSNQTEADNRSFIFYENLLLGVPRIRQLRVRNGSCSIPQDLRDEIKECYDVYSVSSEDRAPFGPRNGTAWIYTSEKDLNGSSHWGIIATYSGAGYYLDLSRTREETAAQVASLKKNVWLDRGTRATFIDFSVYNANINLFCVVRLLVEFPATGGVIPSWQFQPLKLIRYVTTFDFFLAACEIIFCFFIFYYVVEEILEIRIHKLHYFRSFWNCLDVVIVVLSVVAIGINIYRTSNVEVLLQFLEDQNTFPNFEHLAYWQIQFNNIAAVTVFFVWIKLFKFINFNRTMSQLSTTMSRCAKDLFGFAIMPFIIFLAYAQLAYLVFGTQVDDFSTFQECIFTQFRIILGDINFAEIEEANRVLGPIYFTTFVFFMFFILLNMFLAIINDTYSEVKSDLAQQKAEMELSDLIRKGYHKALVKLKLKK
Experiment: cryo-EM structure
parameterMeasured: pEC50
On this scale, pEC50 is minus log10 of a concentration expressed in M (mol/L).

Fill blank: measured pEC50 of the molecule CC1CC(C)(C)N(C(=O)CN2C(=O)c3ccccc3C2=O)c2ccccc21 (stereo not shown) is ____. 5.28
